From: ChEMBL document CHEMBL4673239

- subject.of.test: Tyrosine-protein kinase JAK3 (Homo sapiens, UniProt P52333)
- Sequence (P52333 whole entry, the tested form may be a part): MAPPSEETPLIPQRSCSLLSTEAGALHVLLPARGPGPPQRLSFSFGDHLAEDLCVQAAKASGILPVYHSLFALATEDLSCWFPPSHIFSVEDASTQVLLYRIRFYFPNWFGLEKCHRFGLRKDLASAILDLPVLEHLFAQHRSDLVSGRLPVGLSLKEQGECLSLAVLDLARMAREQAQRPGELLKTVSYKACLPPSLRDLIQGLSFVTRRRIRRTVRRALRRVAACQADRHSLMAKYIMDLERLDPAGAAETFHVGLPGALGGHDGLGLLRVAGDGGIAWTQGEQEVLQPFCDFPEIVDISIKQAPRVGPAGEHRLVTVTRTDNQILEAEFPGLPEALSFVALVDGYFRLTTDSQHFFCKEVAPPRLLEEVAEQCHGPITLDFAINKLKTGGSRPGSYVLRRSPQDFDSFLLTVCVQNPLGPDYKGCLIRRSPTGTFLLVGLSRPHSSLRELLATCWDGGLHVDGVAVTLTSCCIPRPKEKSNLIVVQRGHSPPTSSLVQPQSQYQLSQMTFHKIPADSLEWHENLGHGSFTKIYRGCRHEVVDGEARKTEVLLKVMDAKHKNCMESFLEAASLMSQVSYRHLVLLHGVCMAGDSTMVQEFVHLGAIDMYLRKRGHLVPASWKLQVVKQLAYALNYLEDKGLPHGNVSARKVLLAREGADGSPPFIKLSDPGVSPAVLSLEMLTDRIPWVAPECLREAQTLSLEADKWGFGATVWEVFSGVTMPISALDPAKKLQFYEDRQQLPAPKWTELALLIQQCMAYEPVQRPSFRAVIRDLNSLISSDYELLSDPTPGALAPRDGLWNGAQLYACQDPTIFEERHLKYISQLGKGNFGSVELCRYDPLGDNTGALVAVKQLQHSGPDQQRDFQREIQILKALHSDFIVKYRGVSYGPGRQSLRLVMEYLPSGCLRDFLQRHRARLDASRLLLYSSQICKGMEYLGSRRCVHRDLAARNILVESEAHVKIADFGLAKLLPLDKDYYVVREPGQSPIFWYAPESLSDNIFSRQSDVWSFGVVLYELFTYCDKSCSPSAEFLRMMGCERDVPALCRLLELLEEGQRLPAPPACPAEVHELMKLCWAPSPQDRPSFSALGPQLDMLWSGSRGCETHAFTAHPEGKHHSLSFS
- experiment: Inhibition of recombinant human GST-tagged JAK3 catalytic domain (781 to 1124 residues) expressed in baculovirus expression system using FITC-KGGEEEEYFELVKK as substrate in presence of ATP at Km by microfluidic assay
pIC50: −log10 of the molar value.
measured.endpoint: pIC50

>>> experimental_value("N#CC[C@]1(n2cc(-c3nc(-c4cn[nH]c4)cn4nccc34)cn2)C[C@@H](C#N)C1")
5.65
>>> experimental_value("CC(=O)N1CC(CC#N)(n2cc(-c3nc(-c4cnn(C)c4)cn4nccc34)cn2)C1")
"< 5.00"
>>> experimental_value("CO[C@H]1C[C@@](CC#N)(n2cc(-c3nc(-c4cnn(C)c4)cn4nccc34)cn2)C1")
"< 5.00"
>>> experimental_value("N#CC[C@]1(n2cc(-c3nc(-c4cc[nH]n4)cn4nccc34)cn2)C[C@@H](C#N)C1")
5.35
>>> experimental_value("Cn1ccc(-c2cn3nccc3c(-c3cnn([C@]4(CC#N)C[C@@H](C#N)C4)c3)n2)n1")
"< 5.00"

The measured pIC50 that `N#CC[C@]1(n2cc(-c3nc(-c4cn[nH]c4)cn4nccc34)cn2)C[C@H](C#N)C1` showed for Tyrosine-protein kinase JAK3 (Homo sapiens, UniProt P52333) is < 5.00

The measured pIC50 that `Cn1cc(-c2cn3nccc3c(-c3cnn(C4(CC#N)CN(CCO)C4)c3)n2)cn1` showed for Tyrosine-protein kinase JAK3 (Homo sapiens, UniProt P52333) is < 5.00

The measured pIC50 that `N#CC[C@]1(n2cc(-c3nc(-c4cc[nH]n4)cn4nccc34)cn2)C[C@H](C#N)C1` showed for Tyrosine-protein kinase JAK3 (Homo sapiens, UniProt P52333) is < 5.00

The measured pIC50 that `CCN1CC(CC#N)(n2cc(-c3nc(-c4cnn(C)c4)cn4nccc34)cn2)C1` showed for Tyrosine-protein kinase JAK3 (Homo sapiens, UniProt P52333) is < 5.00

====

- experiment: AUC infinity in Sprague-Dawley rat at 3 mg/kg, po using SDD formulation
- Format: ADME, organism-based
- Design: time infinity, route oral, dose 3 mg/kg
- condition.label: in vivo
measured.endpoint: AUC(0-inf) (ng·h/mL)
Enter your answer as a number in ng·h/mL; do not include the unit.

The compound identified as Cn1cc(-c2cn3nccc3c(-c3cnn([C@]4(CC#N)C[C@@H](C#N)C4)c3)n2)cn1 [ROPSACITINIB] registered its AUC(0-inf) at 2390

====

- experiment: Clearance in Sprague-Dawley rat at 1 mg/kg, iv
- Type: ADME, organism-based
- condition.label: in vivo
measured.endpoint: clearance (mL/min/kg)
Enter your answer as a number in mL/min/kg; do not include the unit.

The compound identified as `Cn1cc(-c2cn3nccc3c(-c3cnn([C@]4(CC#N)C[C@@H](C#N)C4)c3)n2)cn1` registered its clearance at 12

====

- experiment: Thermodynamic solubility of the compound at pH 7.4 using crystalline form of sample
- Format: physicochemical
- condition.label: read-out: Therm_solubility
measured.endpoint: solubility thermodynamic (µM)
Enter your answer as a number in µM; do not include the unit.

The compound identified as `Cn1cc(-c2cn3nccc3c(-c3cnn([C@]4(CC#N)C[C@@H](C#N)C4)c3)n2)cn1` registered its solubility thermodynamic at 0.8

====

- experiment: Clearance in human liver microsomes assessed per mg protein
- Assay type: ADME, Microsome
- condition.label: read-out: CLH
measured.endpoint: microsomal CLint (µL/min/mg)
Enter your answer as a number in µL/min/mg; do not include the unit.

>>> experimental_value("CCN1CC(CC#N)(n2cc(-c3nc(-c4cnn(C)c4)cn4nccc34)cn2)C1")
21

The molecule identified as `N#CC[C@]1(n2cc(-c3nc(-c4cn[nH]c4)cn4nccc34)cn2)C[C@H](C#N)C1` registered its microsomal CLint at 19

The molecule identified as `Cn1cc(-c2cn3nccc3c(-c3cnn(C4(CC#N)CN(CC(F)(F)F)C4)c3)n2)cn1` registered its microsomal CLint at 18

The molecule identified as `Cn1cc(-c2cn3nccc3c(-c3cnn([C@]4(CC#N)C[C@H](C#N)C4)c3)n2)cn1` registered its microsomal CLint at 17

The molecule identified as `Cn1cc(-c2cn3nccc3c(-c3cnn(C4(CC#N)CN(CC5CC5)C4)c3)n2)cn1` registered its microsomal CLint at 30

====

- experiment: Apparent permeability in MDCK-II cells
- Assay type: ADME, cell-based, Canis lupus familiaris
- condition.label: dog
measured.endpoint: Papp (×10⁻⁶ cm/s)
Enter your answer as a number in ×10⁻⁶ cm/s; do not include the unit.

Use the examples below as a reference point.
>>> experimental_value("Cn1cc(-c2cn3nccc3c(-c3cnn(C4(CC#N)CN(CC(F)(F)F)C4)c3)n2)cn1")
18
>>> experimental_value("Cn1ccc(-c2cn3nccc3c(-c3cnn([C@]4(CC#N)C[C@@H](C#N)C4)c3)n2)n1")
20
>>> experimental_value("Cn1cc(-c2cn3nccc3c(-c3cnn([C@]4(CC#N)C[C@H](CC#N)C4)c3)n2)cn1")
21
>>> experimental_value("Cn1cc(-c2cn3nccc3c(-c3cnn([C@]4(CC#N)C[C@@H](C#N)C4)c3)n2)cn1")
17
>>> experimental_value("Cn1cc(-c2cn3nccc3c(-c3cnn([C@]4(CC#N)C[C@H](C#N)C4)c3)n2)cn1")
15
>>> experimental_value("N#CC[C@]1(n2cc(-c3nc(-c4cn[nH]c4)cn4nccc34)cn2)C[C@H](C#N)C1")
7

The molecule identified as `Cn1cc(-c2cn3nccc3c(-c3cnn(C4(CC#N)CN(CC#N)C4)c3)n2)cn1` registered its Papp at 11

The molecule identified as `CCN1CC(CC#N)(n2cc(-c3nc(-c4cnn(C)c4)cn4nccc34)cn2)C1` registered its Papp at 33

The molecule identified as `CO[C@H]1C[C@@](CC#N)(n2cc(-c3nc(-c4cnn(C)c4)cn4nccc34)cn2)C1` registered its Papp at 20

====

- experiment: AUC infinity in Sprague-Dawley rat at 1 mg/kg, iv
- Type: ADME, organism-based
- Design: time infinity, route intravenous, dose 1 mg/kg
- condition.label: in vivo
measured.endpoint: AUC(0-inf) (ng·h/mL)
Enter your answer as a number in ng·h/mL; do not include the unit.

The compound identified as `Cn1cc(-c2cn3nccc3c(-c3cnn([C@]4(CC#N)C[C@@H](C#N)C4)c3)n2)cn1` registered its AUC(0-inf) at 1380

====

- subject.of.test: Tyrosine-protein kinase JAK2 (Homo sapiens, UniProt O60674)
- Sequence (O60674 whole entry, the tested form may be a part): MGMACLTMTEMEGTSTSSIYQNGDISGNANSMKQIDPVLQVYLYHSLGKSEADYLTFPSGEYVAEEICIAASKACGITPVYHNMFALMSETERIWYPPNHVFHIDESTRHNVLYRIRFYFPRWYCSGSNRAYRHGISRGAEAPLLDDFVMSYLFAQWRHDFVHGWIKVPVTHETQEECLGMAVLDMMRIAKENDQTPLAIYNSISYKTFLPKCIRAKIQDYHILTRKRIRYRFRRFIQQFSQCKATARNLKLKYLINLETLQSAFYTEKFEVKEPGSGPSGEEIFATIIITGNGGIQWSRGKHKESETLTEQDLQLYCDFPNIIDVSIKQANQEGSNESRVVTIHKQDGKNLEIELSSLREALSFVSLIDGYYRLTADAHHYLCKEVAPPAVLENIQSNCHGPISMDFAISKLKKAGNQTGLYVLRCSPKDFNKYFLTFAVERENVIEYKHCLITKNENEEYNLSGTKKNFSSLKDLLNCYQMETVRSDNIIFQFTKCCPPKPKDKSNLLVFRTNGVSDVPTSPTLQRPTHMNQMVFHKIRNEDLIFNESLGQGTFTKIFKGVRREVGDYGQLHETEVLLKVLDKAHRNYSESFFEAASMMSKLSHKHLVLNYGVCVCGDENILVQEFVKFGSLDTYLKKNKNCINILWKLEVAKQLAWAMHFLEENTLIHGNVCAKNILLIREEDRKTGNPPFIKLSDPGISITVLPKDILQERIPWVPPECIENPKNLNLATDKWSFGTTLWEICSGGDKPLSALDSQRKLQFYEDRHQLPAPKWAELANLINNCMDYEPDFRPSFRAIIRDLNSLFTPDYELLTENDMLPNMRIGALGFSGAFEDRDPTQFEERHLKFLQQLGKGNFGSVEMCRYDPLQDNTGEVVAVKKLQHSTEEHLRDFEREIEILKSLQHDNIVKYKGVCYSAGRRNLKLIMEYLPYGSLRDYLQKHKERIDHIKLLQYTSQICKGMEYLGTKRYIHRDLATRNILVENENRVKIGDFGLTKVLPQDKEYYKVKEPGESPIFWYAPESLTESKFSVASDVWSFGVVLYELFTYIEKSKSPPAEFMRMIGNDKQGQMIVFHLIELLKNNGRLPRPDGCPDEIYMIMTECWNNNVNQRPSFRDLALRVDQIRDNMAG
- experiment: Inhibition of recombinant human GST-tagged JAK2 catalytic domain (809 to 1153+9 residues) expressed in baculovirus expression system using FITC-KGGEEEEYFELVKK as substrate in presence of ATP at Km by microfluidic assay
Entries and their IC50
Enter your answer as a number in µM; do not include the unit.

Use the examples below as a reference point.
>>> experimental_value("N#CC[C@]1(n2cc(-c3nc(-c4cn[nH]c4)cn4nccc34)cn2)C[C@H](C#N)C1")
0.28
>>> experimental_value("N#CC[C@]1(n2cc(-c3nc(-c4cn[nH]c4)cn4nccc34)cn2)C[C@@H](C#N)C1")
0.022
>>> experimental_value("N#CC[C@]1(n2cc(-c3nc(-c4cc[nH]n4)cn4nccc34)cn2)C[C@H](C#N)C1")
0.172
>>> experimental_value("Cn1cc(-c2cn3nccc3c(-c3cnn(C4(CC#N)CN(CCO)C4)c3)n2)cn1")
1.04
>>> experimental_value("Cn1cc(-c2cn3nccc3c(-c3cnn(C4(CC#N)CN(CC(F)(F)F)C4)c3)n2)cn1")
0.065

The measured IC50 that `Cn1ccc(-c2cn3nccc3c(-c3cnn([C@]4(CC#N)C[C@H](C#N)C4)c3)n2)n1` showed for Tyrosine-protein kinase JAK2 (Homo sapiens, UniProt O60674) is 0.045
